Target: T1, human adenosine A2A receptor (A2aR) (human, UniProt P29274 1-412)
T1 construct: Assays used HEK293 cells stably overexpressing human A2aR (BPS Bioscience 79381), human A2aR-expressing CHO cells, or endogenous A2aR on human PBMC; also called human A2aR; hA2aR
T1 sequence (P29274 whole entry): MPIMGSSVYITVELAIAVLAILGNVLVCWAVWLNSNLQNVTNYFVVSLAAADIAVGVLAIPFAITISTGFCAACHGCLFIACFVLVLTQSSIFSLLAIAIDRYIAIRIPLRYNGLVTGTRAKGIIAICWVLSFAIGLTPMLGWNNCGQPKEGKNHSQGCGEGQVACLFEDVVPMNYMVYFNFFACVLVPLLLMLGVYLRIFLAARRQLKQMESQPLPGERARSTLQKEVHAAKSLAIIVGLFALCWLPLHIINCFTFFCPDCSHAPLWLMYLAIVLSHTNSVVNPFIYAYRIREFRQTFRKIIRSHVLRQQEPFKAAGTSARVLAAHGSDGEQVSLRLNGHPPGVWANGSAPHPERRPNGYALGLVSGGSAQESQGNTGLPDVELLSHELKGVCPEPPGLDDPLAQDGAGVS
Test: flow cytometry, HEK293-hA2aR cells, supernatant 1 ug/ml
Each record here notes measured MFI.

Solved cases below.
# binder, MFI
data = [
    ("Hu3F6-H2/Hu3F6-L5 (antibody, human IgG1, V domains shown, Human IgG1 FES (L234F, L235E, P331S) and human Ig kappa constant domains; also called Hu3F6 VH2/VL5) VH: EVQLVQSGAEVKKPGASVKVSCKTSGFAFTSYWMNWVRQAPGQGLEWMGRIDPSDSEAHYHHKFWGRVTMTVDTSTSTVYMELSSLRSEDTAVYYCLRSLYGKGDYWGHGTTVTVSS VL: DVVMTQTPLSLSVTPGQPASISCRSSQSLVHRNGNTYLEWYLQKPGQSPQLLIYKVSNRFSGVPDRFSGSGSGTDFTLKISRVEAEDVGVYYCYQGSHVPLTFGGGTKVEIK", "1790 MFI"),
    ("Hu3F6-H3/Hu3F6-L5 (antibody, human IgG1, V domains shown, Human IgG1 FES (L234F, L235E, P331S) and human Ig kappa constant domains; also called Hu3F6 VH3/VL5; Hu3F6-VH3/VL5) VH: EVQLVQSGAEVKKPGASVKVSCKTSGFAFTSYWMNWVRQAPGQGLEWIGRIDPSDSEAHYHHKFWGRATLTVDTSSSTVYMELSSLRSEDTAVYYCLRSLYGKGDYWGHGTTVTVSS VL: DVVMTQTPLSLSVTPGQPASISCRSSQSLVHRNGNTYLEWYLQKPGQSPQLLIYKVSNRFSGVPDRFSGSGSGTDFTLKISRVEAEDVGVYYCYQGSHVPLTFGGGTKVEIK", "1900 MFI"),
]

As a next step, examine the binder that follows.
Qu. Consider the binder Hu3F6-H6/Hu3F6-L2 (antibody, human IgG1, V domains shown, Human IgG1 FES (L234F, L235E, P331S) and human Ig kappa constant domains) VH: EVQLVQSGAEVKKPGESLRISCKASGFAFTSYWMNWVRQMPGKGLEWIGRIDPSDSEAHYHHKFWGHATLSVDKSSSTVYLQWSSLKASDTAMYYCLRSLYGKGDYWGHGTTVTVSS VL: DVVMTQSPLSLPVTLGQPASISCRSSQSLVHRNGNTYLEWYQQRPGQSPRRLIYKVSNRFSGVPDRFSGSGSGTDFTLKISRVEAEDVGVYYCYQGSHVPLTFGGGTKVEIK and give its recorded MFI.
Ans. 17 MFI
